- EXPERIMENT_SUMMARY: In vivo pharmacokinetics analysis after oral administration
- CONDITION_DESCRIPTION: plasma, rat, 10 mg/kg based on sorafenib
ENDPOINT: Cmax (µg/mL)
# value in µg/mL; strip the unit string

Query: Give Cmax for the following compound: CNC(=O)c1cc(Oc2ccc(NC(=O)Nc3ccc(Cl)c(C(F)(F)F)c3)cc2)ccn1 [Sorafenib, sorafenib]
Response: 0.1

* * *

- EXPERIMENT_SUMMARY: In vivo pharmacokinetics analysis after oral administration
- CONDITION_DESCRIPTION: plasma, rat, 10 mg/kg based on sorafenib
ENDPOINT: AUC(0-inf) (ng·h/mL)
# value in ng·h/mL; strip the unit string

Query: Give AUC(0-inf) for the following compound: CNC(=O)c1cc(Oc2ccc(NC(=O)Nc3ccc(Cl)c(C(F)(F)F)c3)cc2)ccn1
Response: 4850

* * *

- EXPERIMENT_SUMMARY: In vivo pharmacokinetics analysis after oral administration
- CONDITION_DESCRIPTION: plasma, rat, 10 mg/kg based on sorafenib
- Protocol: In order to evaluate the absorption and disappearance rate of the drug during oral administration, a in vivo pharmacokinetics analysis was performed on rats. A femoral artery of the rat was cannulated with PESO tubes. Then, sorafenib suspension, and sorafenib and bentonite composite suspension as produced according to Present Example 7 were orally administered into the rat. […] After the plasma samples were pretreated, the in-blood drug concentration was analyzed using a mass spectrometer. […]
ENDPOINT: MRT (h)
# value in h; strip the unit string

Query: Give MRT for the following molecule: CNC(=O)c1cc(Oc2ccc(NC(=O)Nc3ccc(Cl)c(C(F)(F)F)c3)cc2)ccn1 [Sorafenib, sorafenib]
Response: 20.5

* * *

- EXPERIMENT_SUMMARY: In vivo pharmacokinetics analysis after oral administration
- CONDITION_DESCRIPTION: plasma, rat, 10 mg/kg based on sorafenib
ENDPOINT: half-life (h)
# value in h; strip the unit string

Query: Give half-life for the following compound: CNC(=O)c1cc(Oc2ccc(NC(=O)Nc3ccc(Cl)c(C(F)(F)F)c3)cc2)ccn1
Response: 28.2

* * *

- EXPERIMENT_SUMMARY: In vivo pharmacokinetics analysis after oral administration
- CONDITION_DESCRIPTION: plasma, rat, 10 mg/kg based on sorafenib
ENDPOINT: Tmax (h)
# value in h; strip the unit string

Query: Give Tmax for the following molecule: CNC(=O)c1cc(Oc2ccc(NC(=O)Nc3ccc(Cl)c(C(F)(F)F)c3)cc2)ccn1
Response: 6.67

* * *

- EXPERIMENT_SUMMARY: Solubility of sorafenib in mixed solvent (acetonitrile / 1 N hydrochloric acid / dimethyl sulfoxide)
- Format: physicochemical
- CONDITION_DESCRIPTION: aqueous with cosolvent or surfactant or cyclodextrin; 15% acetonitrile, 83% 1 N hydrochloric acid, 2% dimethyl sulfoxide; read-out: solubility of sorafenib (dissolved concentration)
ENDPOINT: solubility (µg/mL)
# value in µg/mL; strip the unit string

Query: Give solubility for the following compound: CNC(=O)c1cc(Oc2ccc(NC(=O)Nc3ccc(Cl)c(C(F)(F)F)c3)cc2)ccn1 [Sorafenib, sorafenib]
Response: 500
